Entries and their measured pIC50 follow.
target_entity: LK35.2-hPD-L1 cells / PE-labeled PD-1-Ig (Homo sapiens, UniProt Q9NZQ7)
Construct: expressed in transfected cells; host or cells: LK35.2 mouse B cell line
Sequence (Q9NZQ7 19-290): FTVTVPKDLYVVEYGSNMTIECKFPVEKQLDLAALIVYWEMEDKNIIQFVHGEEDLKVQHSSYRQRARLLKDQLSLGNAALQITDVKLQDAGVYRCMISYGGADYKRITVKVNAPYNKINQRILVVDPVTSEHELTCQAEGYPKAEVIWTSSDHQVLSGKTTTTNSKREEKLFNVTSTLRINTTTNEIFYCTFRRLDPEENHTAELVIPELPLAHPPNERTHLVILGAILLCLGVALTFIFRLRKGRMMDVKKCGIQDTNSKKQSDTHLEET
test_name: LK35.2-hPD-L1 cell binding high-content screening assay
Type: cell-based
assay_conditions: cell binding assay, cell line not given; cluster symbol; read-out: CBA IC50 cluster
pIC50: −log10 of the molar value. Positions of bridges follow the written chain, without caps; N, C: chain ends. Non-standard residues stand in square brackets, D forms with d. Residues, ends and D or L forms follow the SMILES beside them. ξ: configuration not given here. NMeNle = CCCC[C@H](NC)C(=O)O; NMeM = CN[C@@H](CCSC)C(=O)O; NMeA = CN[C@@H](C)C(=O)O; ξC = NC(CS)C(=O)O
property_label: pIC50

1) CCCC[C@H]1C(=O)N(C)[C@@H](CO)C(=O)N[C@@H](CCCNC(=N)N)C(=O)NC(C(=O)NCC(N)=O)CSCC(=O)N[C@@H](Cc2ccc(O)cc2)C(=O)N(C)[C@@H](C)C(=O)N[C@@H](CC(N)=O)C(=O)N2CCC[C@H]2C(=O)N[C@@H](Cc2cnc[nH]2)C(=O)N[C@@H](CC(C)C)C(=O)N2C[C@H](O)C[C@H]2C(=O)N[C@@H](Cc2c[nH]c3ccccc23)C(=O)N[C@@H](CO)C(=O)N[C@@H](Cc2c[nH]c3ccccc23)C(=O)N1C (some centres unmarked) :: 7.14 to 8.32
2) CCCC[C@H]1C(=O)N(C)[C@@H](CCSC)C(=O)N[C@@H](CCCNC(=N)N)C(=O)NC(C(=O)NCC(N)=O)CSCC(=O)N[C@@H](Cc2ccc(O)cc2)C(=O)N(C)[C@@H](C)C(=O)N[C@@H](CC(N)=O)C(=O)N2CCC[C@H]2C(=O)N[C@@H](Cc2cnc[nH]2)C(=O)N[C@@H](CC(C)C)C(=O)N2CCC[C@H]2C(=O)N[C@@H](Cc2c[nH]c3ccccc23)C(=O)N[C@@H](CO)C(=O)N[C@@H](Cc2c[nH]c3ccccc23)C(=O)N1C (some centres unmarked) [Example 9030] ({CH2CO}-Y[NMeA]NPHLPWSW[NMeNle][NMeM]R[ξC]G-NH2; thioether N-14) :: 8.33 to 9.80

###

target_entity: Human PD-L1/PD-1 (Homo sapiens)
Construct: made in house; host or cells: HEK293T
Sequence (Q9NZQ7 with tags, fused parts or gaps): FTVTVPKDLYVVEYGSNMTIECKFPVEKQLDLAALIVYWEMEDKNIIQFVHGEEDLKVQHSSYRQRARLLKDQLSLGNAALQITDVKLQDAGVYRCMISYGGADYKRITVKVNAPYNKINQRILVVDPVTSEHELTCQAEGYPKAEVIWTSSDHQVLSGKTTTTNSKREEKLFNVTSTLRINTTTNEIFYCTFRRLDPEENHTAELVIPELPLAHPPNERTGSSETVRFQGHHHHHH
test_name: HTRF PD-1-Ig/PD-L1-His binding assay (human PD-L1)
assay_conditions: numeric value; read-out: HTRF IC50 values
pIC50: −log10 of the molar value. Positions of bridges follow the written chain, without caps; N, C: chain ends. Non-standard residues stand in square brackets, D forms with d. Residues, ends and D or L forms follow the SMILES beside them. ξ: configuration not given here. Bta = N[C@@H](Cc1csc2ccccc12)C(=O)O; Hyp = O=C(O)[C@@H]1C[C@@H](O)CN1; NMeNle = CCCC[C@H](NC)C(=O)O; NMeM = CN[C@@H](CCSC)C(=O)O; NMeA = CN[C@@H](C)C(=O)O; Dap = NC[C@H](N)C(=O)O; ξC = NC(CS)C(=O)O
Below: a set of entries, each annotated with reported pIC50.
property_label: pIC50

1) CCCC[C@H]1C(=O)N(C)[C@@H](CCCC)C(=O)N[C@@H](CCCNC(=N)N)C(=O)NC(C(=O)NCC(N)=O)CSCC(=O)N[C@@H](Cc2ccc(O)cc2)C(=O)N(C)[C@@H](C)C(=O)N[C@@H](CC(N)=O)C(=O)N2CCC[C@H]2C(=O)N[C@@H](Cc2cnc[nH]2)C(=O)N[C@@H](CO)C(=O)N2CCC[C@H]2C(=O)N[C@@H](Cc2c[nH]c3ccccc23)C(=O)N[C@@H](CO)C(=O)N[C@@H](Cc2csc3ccccc23)C(=O)N1C (stereo partly shown) [Example 9068] ({CH2CO}-Y[NMeA]NPHSPWS[Bta][NMeNle][NMeNle]R[ξC]G-NH2; thioether N-14) :: 9.41
2) CCCC[C@H]1C(=O)N[C@@H](CCCNC(=N)N)C(=O)NC(C(=O)NCC(N)=O)CSCC(=O)N[C@@H](Cc2ccc(O)cc2)C(=O)N(C)[C@@H](C)C(=O)N[C@@H](CC(N)=O)C(=O)N2CCC[C@H]2C(=O)N[C@@H](Cc2cnc[nH]2)C(=O)N[C@@H](CC(C)C)C(=O)N2C[C@H](O)C[C@H]2C(=O)N[C@@H](Cc2c[nH]c3ccccc23)C(=O)N[C@@H](CO)C(=O)N[C@@H](Cc2c[nH]c3ccccc23)C(=O)N(C)[C@@H](C)C(=O)N1C (stereo partly shown) :: 7.83
3) CCCC[C@H]1C(=O)N[C@@H](CCCNC(=N)N)C(=O)NC(C(=O)NCC(N)=O)CSCC(=O)N[C@@H](Cc2ccc(O)cc2)C(=O)N(C)[C@@H](C)C(=O)N[C@@H](CC(N)=O)C(=O)N2CCC[C@H]2C(=O)N[C@@H](CN)C(=O)N[C@@H](CC(C)C)C(=O)N2C[C@H](O)C[C@H]2C(=O)N[C@@H](Cc2c[nH]c3ccccc23)C(=O)N[C@@H](CO)C(=O)N[C@@H](Cc2c[nH]c3ccccc23)C(=O)N(C)[C@@H](CCSC)C(=O)N1C (stereo partly shown) [Example 9091] ({CH2CO}-Y[NMeA]NP[Dap]L[Hyp]WSW[NMeM][NMeNle]R[ξC]G-NH2; thioether N-14) :: 6.11
4) CCCC[C@H]1C(=O)N[C@@H](CCCNC(=N)N)C(=O)NC(C(=O)NCC(N)=O)CSCC(=O)N[C@@H](Cc2ccc(O)cc2)C(=O)N(C)[C@@H](C)C(=O)N[C@@H](CC(N)=O)C(=O)N2CCC[C@H]2C(=O)N[C@@H](Cc2cnc[nH]2)C(=O)N[C@@H](CC(C)C)C(=O)N2C[C@H](O)C[C@H]2C(=O)N[C@@H](Cc2c[nH]c3ccccc23)C(=O)N[C@@H](CO)C(=O)N[C@@H](Cc2c[nH]c3ccccc23)C(=O)N(C)[C@@H](CCSC)C(=O)N1C (stereo partly shown) :: 8.46
